// data source = ChEMBL document CHEMBL3526007

target: CYP2E1 (Homo sapiens); assay: Inactivation of human CYP2E1 expressed in Escherichia coli MV1304 assessed as remaining enzyme activity at 25 uM after dialysis in presence of fresh reductase by 7-EFC O-de-ethylation activity detection based spectrofluorometry; format: ADME; conditions: probe 7-EFC (O-de-ethylation), read-out: Activity
readoutKind: activity at 25 µM (%)

• S=C=NCCc1ccccc1 [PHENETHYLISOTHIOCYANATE] = 85

----------
target: CYP2E1 (Homo sapiens, UniProt P05181); experiment: Inhibition of human CYP2E1 expressed in Escherichia coli MV1304 assessed as reduction in 7-EFC O-de-ethylation activity by spectrofluorometry based double reciprocal plot; assay type: ADME; details: human, probe 7-EFC (O-de-ethylation)
Sequence (P05181 whole entry): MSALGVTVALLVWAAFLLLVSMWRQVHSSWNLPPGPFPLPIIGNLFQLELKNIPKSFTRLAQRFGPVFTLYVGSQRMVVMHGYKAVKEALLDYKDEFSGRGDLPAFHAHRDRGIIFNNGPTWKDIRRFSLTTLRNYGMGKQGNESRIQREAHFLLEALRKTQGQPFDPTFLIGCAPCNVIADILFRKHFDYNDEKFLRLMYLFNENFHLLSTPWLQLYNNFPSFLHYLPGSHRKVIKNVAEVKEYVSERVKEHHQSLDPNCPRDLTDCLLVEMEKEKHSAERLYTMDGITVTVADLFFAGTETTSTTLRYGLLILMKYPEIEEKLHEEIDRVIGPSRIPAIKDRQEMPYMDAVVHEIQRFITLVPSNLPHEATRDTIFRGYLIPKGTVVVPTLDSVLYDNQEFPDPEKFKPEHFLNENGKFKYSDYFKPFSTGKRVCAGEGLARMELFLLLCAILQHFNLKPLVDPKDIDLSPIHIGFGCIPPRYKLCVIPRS
readoutKind: kinact (s⁻¹)

• S=C=NCCc1ccccc1 [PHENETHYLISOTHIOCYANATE] = 0.00383

----------
molecular target: CYP2E1 (Homo sapiens); assay: Inactivation of human CYP2E1 expressed in Escherichia coli MV1304 assessed as remaining enzyme activity at 25 uM after dialysis by 7-EFC O-de-ethylation activity detection based spectrofluorometry; format: ADME; conditions: probe 7-EFC (O-de-ethylation), read-out: Activity
readoutKind: activity at 25 µM (%)

• S=C=NCCc1ccccc1 [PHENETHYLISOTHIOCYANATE] = 82
